test system: HCT-116 (Human colorectal cells); assay: MTT cytotoxicity assay, HCT-116; type: cell-based; conditions: MTT, 48 h, no irradiation, mean ± SD of three experiments
# pIC50 per entry
Units for pIC50: none; it is -log10 of a concentration expressed in mol/L.

compound	pIC50
CCOP(=O)(OCC)C(NC(=O)CCOc1ccc2c(C)cc(=O)oc2c1)c1ccc2ccccc2c1 (stereo not drawn) [Compound 8i]	4.41
CCOP(=O)(OCC)C(NC(=O)CCOc1ccc2c(C)cc(=O)oc2c1)c1ccccc1Br (stereo not drawn) [Compound 8e]	4.04
CCOP(=O)(OCC)C(NC(=O)CCOc1ccc2c(C)cc(=O)oc2c1)c1ccccc1Cl (stereo not drawn) [Compound 8c]	4.05
CCOP(=O)(OCC)C(NC(=O)CCOc1ccc2c(C)cc(=O)oc2c1)c1cccc(Br)c1 (stereo not drawn) [Compound 8f]	4.59

Reported HCT-116 (Human colorectal cells) pIC50 for item CCOP(=O)(OCC)C(NC(=O)CCOc1ccc2c(C)cc(=O)oc2c1)c1ccc(Cl)cc1 (stereo not drawn) [Compound 8d] was 4.06

Record CCOP(=O)(OCC)C(NC(=O)CCOc1ccc2c(C)cc(=O)oc2c1)c1ccc(Br)cc1 (stereo not drawn) [Compound 8g] ; system HCT-116 (Human colorectal cells); pIC50 = 4.05

Value sought: pIC50, system HCT-116 (Human colorectal cells), item CCOP(=O)(OCC)C(NC(=O)CCOc1ccc2c(C)cc(=O)oc2c1)c1ccccc1OC (stereo not drawn) [Compound 8h] . Result: 4.63

====

system: HCT-116 (Human colorectal cells); assay: MTT cytotoxicity assay, HCT-116; format: cell-based; settings: Homo sapiens, HCT-116, light or radiation study; MTT, 48 h, no irradiation, mean ± SD of three experiments
measured_quantity: pIC50
// returns pIC50 (minus log10 of molar concentration), number only

molecule	system_name	observed
O=c1[nH]cc(F)c(=O)[nH]1 [Compound 5-Fu, 5-fluoro-2,4(1H,3H)pyrimidinedione, reference compound]	HCT-116 (Human colorectal cells)	5.00

Entry CCOP(=O)(OCC)C(C)(NC(=O)CCOc1ccc2c(C)cc(=O)oc2c1)c1ccccc1 (stereo not drawn) [Compound 8j] , pIC50 reported as 5.06
